Every entry's value here was drawn from patent US11993573B2.

Tested on: human ovarian cancer cell line A2780
Test: Growth inhibition assay (CellTiter 96 Non-Rad Cell Proliferation Assay)
Assay type: cell-based
Conditions: Homo sapiens, A2780, Table 3, 14 series (thiochroman); A2780
measured metric: pIC50
One number for each entry, as −log10 of the molar value.

Solved cases (3 shown):
molecule: CC1(C)CC(C)(C)c2cc(NC(=S)NCc3ccc(C(F)(F)F)cc3)ccc2S1 [Compound 14n]
pIC50: 5.32

molecule: CC1(C)CC(C)(C)c2cc(NC(=S)Nc3ccc(OC(F)(F)F)cc3)ccc2S1 [Compound 14f]
pIC50: 5.45

molecule: CC1(C)CC(C)(C)c2cc(NC(=S)NNC(=O)c3ccc(OC(F)(F)F)cc3)ccc2S1 [Compound 14t]
pIC50: 5.44

Hi team, please reply with pIC50 for each item in this list.
1. CC1(C)CC(C)(C)c2cc(NC(=S)Nc3ccc([N+](=O)[O-])cc3)ccc2S1 [SHetA2, reference compound]
2. CC1(C)CC(C)(C)c2cc(NC(=O)Nc3ccc(C#N)cc3)ccc2S1 [Compound 14c]

1. 5.50
2. 5.41

Hi team, please reply with pIC50 for each item in this list.
1. CC1(C)CC(C)(C)c2cc(NC(=S)NNc3ccccc3)ccc2S1 [Compound 14q]
2. CC1(C)CC(C)(C)c2cc(NC(=S)NNC(=O)c3ccccc3)ccc2S1 [Compound 14r]
3. CC1(C)CC(C)(C)c2cc(NC(=S)NCc3ccc(Cl)cc3)ccc2S1 [Compound 14l]
4. CC1(C)CC(C)(C)c2cc(NC(=S)NCc3ccc(O)cc3)ccc2S1 [Compound 14p]
5. COc1ccc(CNC(=S)Nc2ccc3c(c2)C(C)(C)CC(C)(C)S3)cc1 [Compound 14o]
6. CC1(C)CC(C)(C)c2cc(NC(=S)NCc3ccc([N+](=O)[O-])cc3)ccc2S1 [Compound 14m]

1. 5.15
2. 6.09
3. 5.53
4. 5.49
5. 5.49
6. 5.33
